assay: Phase 1 hepatic impairment study, plasma PK after single oral 20 mg tablet; type: in vivo, human; conditions: both sexes, human, plasma, oral, 20 mg, moderate hepatic impairment; read-out: VZ/F, Mean ± SD
Measured property: Vd/F (L)
Your answer should be a plain number; it is taken to be in L.

Hello, please tell me recorded Vd/F for this one: N#Cc1cccc(-c2ccc3ncc(-c4cc(F)cc(F)c4)c(N4CCC(N)CC4)c3c2)c1O
1050

====

assay: Phase 1 hepatic impairment study, plasma PK after single oral 20 mg tablet; format: in vivo, human; conditions: both sexes, human, plasma, oral, 20 mg, normal hepatic function; read-out: t1/2, Mean ± SD (converted)
Measured property: half-life
Your answer should be a number followed by the unit of measure.

Write down half-life measured for item N#Cc1cccc(-c2ccc3ncc(-c4cc(F)cc(F)c4)c(N4CCC(N)CC4)c3c2)c1O
32.8 h

====

experiment: Phase 1 hepatic impairment study, plasma PK after single oral 20 mg tablet; assay type: in vivo, human; settings: both sexes, human, plasma, oral, 20 mg, moderate hepatic impairment; read-out: Cmax, Mean ± SD
Measured property: Cmax (ng/mL)
Report only the number, with the unit ng/mL understood.

Write down Cmax measured for item N#Cc1cccc(-c2ccc3ncc(-c4cc(F)cc(F)c4)c(N4CCC(N)CC4)c3c2)c1O
100

====

test: Phase 1 hepatic impairment study, plasma PK after single oral 20 mg tablet; format: in vivo, human; settings: both sexes, human, plasma, oral, 20 mg, mild hepatic impairment; read-out: VZ/F, Mean ± SD
Measured property: Vd/F

For the compound N#Cc1cccc(-c2ccc3ncc(-c4cc(F)cc(F)c4)c(N4CCC(N)CC4)c3c2)c1O [paltusotine] , give its reported Vd/F.
565 L

====

assay: Phase 1 hepatic impairment study, plasma PK after single oral 20 mg tablet; format: in vivo, human; settings: both sexes, human, plasma, oral, 20 mg, severe hepatic impairment; read-out: tmax, Median (min, max)
Measured property: Tmax

Tell me measured Tmax for N#Cc1cccc(-c2ccc3ncc(-c4cc(F)cc(F)c4)c(N4CCC(N)CC4)c3c2)c1O please.
3 h

====

assay: plasma exposure in 14-day rat study; type: in vivo; settings: 10 mg/kg/day oral, read-out: day-last mean plasma Cmax
Measured property: Cmax (ng/mL)
The figure you give is taken to be in ng/mL; do not add the unit.

Please give measured Cmax of the following entry: N#Cc1cccc(-c2ccc3ncc(-c4cc(F)cc(F)c4)c(N4CCC(N)CC4)c3c2)c1O [paltusotine]
127

====

assay: Phase 1 hepatic impairment study, plasma PK after single oral 20 mg tablet; assay type: in vivo, human; conditions: both sexes, human, plasma, oral, 20 mg, mild hepatic impairment; read-out: t1/2, Mean ± SD (converted)
Measured property: half-life (h)
The reply should be a number in h, with the unit left off.

Return half-life (reported value) for this compound: N#Cc1cccc(-c2ccc3ncc(-c4cc(F)cc(F)c4)c(N4CCC(N)CC4)c3c2)c1O [paltusotine]
29.5

====

assay: Phase 1 hepatic impairment study, plasma PK after single oral 20 mg tablet; type: in vivo, human; settings: both sexes, human, plasma, oral, 20 mg, normal hepatic function; read-out: tmax, Median (min, max)
Measured property: Tmax (h)
Your answer is read as h, so omit the unit and give the number.

Fill in reported Tmax for this entry: N#Cc1cccc(-c2ccc3ncc(-c4cc(F)cc(F)c4)c(N4CCC(N)CC4)c3c2)c1O
2

====

test: Phase 1 hepatic impairment study, plasma PK after single oral 20 mg tablet; assay type: in vivo, human; conditions: both sexes, human, plasma, oral, 20 mg, moderate hepatic impairment; read-out: MRT(0-inf), Median (min, max)
Measured property: MRT inf (h)
Response body: numeric value in h, unit text excluded.

Identify measured MRT inf associated with N#Cc1cccc(-c2ccc3ncc(-c4cc(F)cc(F)c4)c(N4CCC(N)CC4)c3c2)c1O [paltusotine]
25.2
